Cited source: PubChem BioAssay (Tox21)

Run Description: qHTS assay to identify small molecule agonists of the progesterone receptor (PR) signaling pathway - cell viability counter screen (AID 1346799); also: % is scaled to controls: 0 for no effect and ±100 for the full control effect; nearly all actives have a fitted effect of over 45% in size
Condition Details: PR-UAS-bla HEK293T viability, CellTiter-Glo luminescence, 16 h; series mostly up to 92.4 µM
Inconclusive results are not listed. The source made the active and inactive calls. Calls follow the shape of the full dose curve.
Observable: activity change, negative = cytotoxicity

Below, each entry is followed by its recorded activity change, negative = cytotoxicity result.
Compound	activity change, negative = cytotoxicity
CCCCC(=O)Cl	inactive
O=C(O)C(Br)CBr (stereo not drawn)	inactive
CCOP(=S)(OCC)SCSP(=S)(OCC)OCC	inactive
CCCCCCBr	inactive
CCOP(=S)(OCC)Oc1ncn(-c2ccccc2)n1	inactive
COc1cc(OC)nc(NC(=O)NS(=O)(=O)c2ncccc2OCC(F)(F)F)n1	inactive
CC1CCC(=O)O1 (stereo not drawn)	inactive
NC(=O)c1cc([N+](=O)[O-])cc([N+](=O)[O-])c1	inactive
CC1=C(C(=O)O)N2C(=O)[C@@H](N)[C@H]2SC1	0.398% [at 19 µM] (inactive)
Nc1c(Br)cc([N+](=O)[O-])cc1[N+](=O)[O-]	inactive

In: Entry under review: OC(Cn1cncn1)(c1ccc(F)cc1)c1ccccc1F (stereo not drawn) . Reported activity change, negative = cytotoxicity?
Out: inactive

In: Given Cc1ccccc1CO[C@@H]1C[C@@]2(C(C)C)CC[C@]1(C)O2 , state its recorded activity change, negative = cytotoxicity.
Out: inactive

In: What value of measured activity change, negative = cytotoxicity is listed for O=C1OC(=O)C2C1C1(Cl)C(Cl)=C(Cl)C2(Cl)C1(Cl)Cl (stereo not drawn) ?
Out: inactive

In: What activity change, negative = cytotoxicity value was documented for this compound, CN1CCN(C(=O)O[C@H]2c3nccnc3C(=O)N2c2ccc(Cl)cn2)CC1 ?
Out: inactive

In: Could you tell me which activity change, negative = cytotoxicity is on file for CN/C(=N\[N+](=O)[O-])NCC1CCOC1 (stereo not drawn) ?
Out: inactive

In: What value of measured activity change, negative = cytotoxicity is listed for BrCCCCCCBr ?
Out: inactive

In: For the compound shown here, CCOC(=O)/C=C(C)/C=C/C[C@@H](C)CCCC(C)C , give the reported activity change, negative = cytotoxicity.
Out: inactive

In: Could you share which activity change, negative = cytotoxicity value was measured for O=[N+]([O-])c1cc(Cl)c(Cl)c(Cl)c1 ?
Out: inactive

In: Report activity change, negative = cytotoxicity for Nc1ccccc1Cl please.
Out: inactive

In: Reported activity change, negative = cytotoxicity, compound CCc1cc2c(s1)-n1c(C)nnc1CN=C2c1ccccc1Cl : ____
Out: inactive
